# MEASUREMENT TARGET: M. tb DapB (Mycobacterium tuberculosis, UniProt P9WP23)
# Sequence (P9WP23 whole entry, looked up): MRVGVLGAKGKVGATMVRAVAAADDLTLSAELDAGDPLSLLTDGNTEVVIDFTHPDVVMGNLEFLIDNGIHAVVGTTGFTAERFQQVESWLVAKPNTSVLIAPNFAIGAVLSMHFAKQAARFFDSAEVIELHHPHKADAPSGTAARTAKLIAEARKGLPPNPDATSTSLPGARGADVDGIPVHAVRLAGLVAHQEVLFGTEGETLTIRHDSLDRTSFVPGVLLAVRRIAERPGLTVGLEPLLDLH

SMILES INPUT: COC(=O)CCCc1nc2ccccc2nc1N=Nc1ccccc1
IC50 (µM): 32.9
